Field: log10(IC50). Provide a value for each of the molecules that follow.
Friendly reminder: values = log10 of IC50, unit µM.

Q: Lab note: HPK1 kinase (aal-346. Life Technologies) (Homo sapiens (Human)) assay, enter log10(IC50) for Cc1cc(-c2cnc(N)c(Oc3cnn(C4CCN(C)CC4)c3)n2)cc(C2(O)CCOC2)c1N1CCOCC1 (stereo not drawn) here
Result: -1.44

Q: Lab note: HPK1 kinase (aal-346. Life Technologies) (Homo sapiens (Human)) assay, enter log10(IC50) for CNS(=O)(=O)c1cc(-c2cnc(N)c(Oc3cnn(C4CCN(C)CC4)c3)n2)cc(C(C)(C)C)c1 here
Result: -0.95

Q: Lab note: HPK1 kinase (aal-346. Life Technologies) (Homo sapiens (Human)) assay, enter log10(IC50) for Cc1cc(-c2cnc(N)c(Oc3cnn(C4CCN(C)CC4)c3)n2)cc(S(=O)(=O)NCCC#N)c1 here
Result: -1.36

Q: Lab note: HPK1 kinase (aal-346. Life Technologies) (Homo sapiens (Human)) assay, enter log10(IC50) for CCN(CC)c1cc(-c2cnc(N)c(Oc3cnn(C4CCN(C)CC4)c3)n2)cc(CNC)n1 here
Result: -1.59

Q: Lab note: HPK1 kinase (aal-346. Life Technologies) (Homo sapiens (Human)) assay, enter log10(IC50) for Cc1cc(-c2cnc(N)c(Oc3cnn(C4CCN(C)CC4)c3)n2)cc(C2(O)CCOC2)c1 (stereo not drawn) here
Result: -1.24

Q: Lab note: HPK1 kinase (aal-346. Life Technologies) (Homo sapiens (Human)) assay, enter log10(IC50) for CNC(=O)c1c(C)cc(-c2cnc(N)c(Oc3cnn(C4CCN(C)CC4)c3)n2)cc1C here
Result: -0.96

Q: Lab note: HPK1 kinase (aal-346. Life Technologies) (Homo sapiens (Human)) assay, enter log10(IC50) for Cc1cc(-c2cnc(N)c(Oc3cnn(C4CCN(C)CC4)c3)n2)cc([C@H]2CCC(=O)N2)c1 [Example A61A] here
Result: -0.60

Q: Lab note: HPK1 kinase (aal-346. Life Technologies) (Homo sapiens (Human)) assay, enter log10(IC50) for CNS(=O)(=O)c1cc(C)cc(-c2cnc(N)c(Oc3cnn(C4CCN(CC5COC5)CC4)c3)n2)c1 here
Result: -1.30

Q: Lab note: HPK1 kinase (aal-346. Life Technologies) (Homo sapiens (Human)) assay, enter log10(IC50) for Cc1cc(-c2cnc(N)c(Oc3cnn(C4CCN(C)CC4)c3)n2)cc(C2(O)COC2)c1C here
Result: -1.96

Q: Lab note: HPK1 kinase (aal-346. Life Technologies) (Homo sapiens (Human)) assay, enter log10(IC50) for Cc1cc(-c2cnc(N)c(Oc3cnn(C4CCN(C)CC4)c3)n2)cc(C)c1N1CC2(COC2)C1 here
Result: -1.42

Q: Lab note: HPK1 kinase (aal-346. Life Technologies) (Homo sapiens (Human)) assay, enter log10(IC50) for Cc1cc(-c2cnc(N)c(Oc3cnn(C4CCN(C)CC4)c3)n2)cc(C)c1CNc1cnn(C)c1 here
Result: -1.62

Q: Lab note: HPK1 kinase (aal-346. Life Technologies) (Homo sapiens (Human)) assay, enter log10(IC50) for Cc1cc(-c2cnc(N)c(Oc3cnn(C4CCN(C)CC4)c3)n2)cc([Si](C)(C)O)c1 here
Result: -1.74

Q: Lab note: HPK1 kinase (aal-346. Life Technologies) (Homo sapiens (Human)) assay, enter log10(IC50) for Cc1cc(-c2cnc(N)c(Oc3cnn(C4CCN(C)CC4)c3)n2)cc(C2(O)COC2)c1C1OCCO1 here
Result: -1.25

Q: Lab note: HPK1 kinase (aal-346. Life Technologies) (Homo sapiens (Human)) assay, enter log10(IC50) for Cc1cc(-c2cnc(N)c(Oc3cnn(C4CCN(C)CC4)c3)n2)cc(C)c1CNS(=O)(=O)N1CCOCC1 here
Result: -1.59

Q: Lab note: HPK1 kinase (aal-346. Life Technologies) (Homo sapiens (Human)) assay, enter log10(IC50) for CNC(=O)NCc1c(C)cc(-c2cnc(N)c(Oc3cnn(C4CCN(C)CC4)c3)n2)cc1C here
Result: -1.52

* * *

Record type: pIC50 measurement. Applies to: HPK1 kinase (aal-346. Life Technologies) (Homo sapiens (Human), UniProt Q92918)
In textbook form, pIC50 equals minus log to base ten of the concentration in mol/L.

Q: Entry CNS(=O)(=O)c1cc(C)cc(-c2cnc(N)c(Oc3cnn([C@@H]4C[C@H]5CC[C@@H](C4)N5C)c3)n2)c1 needs its pIC50 filled in; supply it.
Result: 7.35

Q: Entry Cc1cc(-c2cnc(N)c(Oc3cnn(C4CCN(C)CC4)c3)n2)cc(C2(NS(C)(=O)=O)CC2)c1 needs its pIC50 filled in; supply it.
Result: 8.05

Q: Entry C[C@@H]1COCCN1c1cc(-c2cnc(N)c(Oc3cnn(C4CCN(C)CC4)c3)n2)cc([C@]2(O)CCOC2)c1 [Example A80B] needs its pIC50 filled in; supply it.
Result: 8.27

Q: Entry Cc1cc(-c2cnc(N)c(Oc3cnn(C4CCN(C)CC4)c3)n2)cc([C@@]2(O)CCOC2)c1 (single isomer, unassigned) [Example A74A] needs its pIC50 filled in; supply it.
Result: 7.34

Q: Entry Cc1cc(-c2cnc(N)c(Oc3cnn(C4CCN(C)CC4)c3)n2)cc([C@]2(O)CCOC2)c1N1CCOCC1 [Example A97B] needs its pIC50 filled in; supply it.
Result: 7.52

Q: Entry Cc1cc(-c2cnc(N)c(Oc3cnn(C4CCN(C)CC4)c3)n2)cc([C@@H]2CCC(=O)N2)c1 [Example A61B] needs its pIC50 filled in; supply it.
Result: 8.00

Q: Entry Cc1cc(-c2cnc(N)c(Oc3cnn(C4CCN(C)CC4)c3)n2)cc([C@@]2(O)CCOC2)c1N1CCOCC1 [Example A97A] needs its pIC50 filled in; supply it.
Result: 7.74

Q: Entry C[C@@H]1COCCN1c1cc(-c2cnc(N)c(Oc3cnn(C4CCN(C)CC4)c3)n2)cc([C@@]2(O)CCOC2)c1 [Example A80A] needs its pIC50 filled in; supply it.
Result: 7.54

Q: Entry Cc1cc(-c2cnc(N)c(Oc3cnn(C4CCN(C)CC4)c3)n2)cc(C)c1CNS(C)(=O)=O needs its pIC50 filled in; supply it.
Result: 7.36

Q: Entry CCC(C)(O)c1cc(C)cc(-c2cnc(N)c(Oc3cnn(C4CCN(C)CC4)c3)n2)c1 (stereo not shown) needs its pIC50 filled in; supply it.
Result: 8.17

Q: Entry C[C@@H]1COCCN1c1cc(-c2cnc(N)c(Oc3cnn(C4CCN(C)CC4)c3)n2)cc(C2(O)CCCOC2)c1 (stereo partly shown) [Example A89] needs its pIC50 filled in; supply it.
Result: 7.96

Q: Entry CN1CCC(n2cc(Oc3nc(-c4cc(N5CCCOCC5)cc(C5(O)CCOC5)c4)cnc3N)cn2)CC1 (stereo not shown) needs its pIC50 filled in; supply it.
Result: 8.04

Q: Entry Cc1cc(CCNS(C)(=O)=O)cc(-c2cnc(N)c(Oc3cnn(C4CCN(C)CC4)c3)n2)c1 needs its pIC50 filled in; supply it.
Result: 6.90

Q: Entry C[C@@H]1COCCN1c1cc(-c2cnc(N)c(Oc3cnn(C4CCN(C)CC4)c3)n2)cc(C2(O)CCCOC2)c1 (single isomer, unassigned) [Example A90A] needs its pIC50 filled in; supply it.
Result: 7.09

Q: Entry CNS(=O)(=O)c1cc(-c2cnc(N)c(Oc3cnn(C4CCN(C)CC4)c3)n2)cc(N2CCC[C@H]2C)c1 needs its pIC50 filled in; supply it.
Result: 8.22

Q: Entry Cc1cc(-c2cnc(N)c(Oc3cnn(C4CCN(C)CC4)c3)n2)cc(C)c1CNC(=O)NCC(F)(F)F needs its pIC50 filled in; supply it.
Result: 7.34

Q: Entry CC1OCCC1(O)c1cc(-c2cnc(N)c(Oc3cnn(C4CCN(C)CC4)c3)n2)cc(N2CCOC[C@H]2C)c1 (single isomer, unassigned) [Example A95B] needs its pIC50 filled in; supply it.
Result: 8.35

Q: Entry CC1OCCC1(O)c1cc(-c2cnc(N)c(Oc3cnn(C4CCN(C)CC4)c3)n2)cc(N2CCOC[C@H]2C)c1 (single isomer, unassigned) [Example A95A] needs its pIC50 filled in; supply it.
Result: 7.36

Q: Entry C[C@@H]1COCCN1c1cc(-c2cnc(N)c(Oc3cnn(C4CCN(C)CC4)c3)n2)cc(C2(O)CCCOC2)c1 (single isomer, unassigned) [Example A90B] needs its pIC50 filled in; supply it.
Result: 8.15

Q: Entry COC[C@@H]1COCCN1c1cc(-c2cnc(N)c(Oc3cnn(C4CCN(C)CC4)c3)n2)cc(C2(O)COC2)c1 needs its pIC50 filled in; supply it.
Result: 8.24

Q: Entry CCNS(=O)(=O)c1cc(C)cc(-c2cnc(N)c(Oc3cnn(C4CCN(C)CC4)c3)n2)c1 needs its pIC50 filled in; supply it.
Result: 7.08

Q: Entry CC#Cc1c(C)cc(-c2cnc(N)c(Oc3cnn(C4CCN(C)CC4)c3)n2)cc1C1(O)COC1 needs its pIC50 filled in; supply it.
Result: 7.43

Q: Entry Cc1cc(-c2cnc(N)c(Oc3cnn(C4CCN(C)CC4)c3)n2)cc(C)c1C(=O)NCCN1CCCC1 needs its pIC50 filled in; supply it.
Result: 7.60

Q: Entry Cc1cc(-c2cnc(N)c(Oc3cnn(C4CCN(C)CC4)c3)n2)cc(C)c1CNc1ccn(C)n1 needs its pIC50 filled in; supply it.
Result: 7.28

Q: Entry CNc1cc(-c2cnc(N)c(Oc3cnn(C4CCN(C)CC4)c3)n2)cc(S(=O)(=O)NC)c1 needs its pIC50 filled in; supply it.
Result: 7.85

Q: Entry Cc1cc(-c2cnc(N)c(Oc3cnn(C4CCN(C)CC4)c3)n2)cc(C)c1C1=CCOCC1 needs its pIC50 filled in; supply it.
Result: 7.54

Q: Entry CNS(=O)(=O)c1cc(-c2cnc(N)c(Oc3cnn(C4CCN(C)CC4)c3)n2)cc(C)c1C needs its pIC50 filled in; supply it.
Result: 8.10

Q: Entry Cc1cc(-c2cnc(N)c(Oc3cnn(C4CCN(C)CC4)c3)n2)cc(C2(O)CCOC2)c1F (stereo not shown) needs its pIC50 filled in; supply it.
Result: 7.43

Hello, the source for this data is patent US20240317714A1, in case you need it.
